target: UniProt Q6P6C2
Sequence (Q6P6C2 66-292 limits assumed): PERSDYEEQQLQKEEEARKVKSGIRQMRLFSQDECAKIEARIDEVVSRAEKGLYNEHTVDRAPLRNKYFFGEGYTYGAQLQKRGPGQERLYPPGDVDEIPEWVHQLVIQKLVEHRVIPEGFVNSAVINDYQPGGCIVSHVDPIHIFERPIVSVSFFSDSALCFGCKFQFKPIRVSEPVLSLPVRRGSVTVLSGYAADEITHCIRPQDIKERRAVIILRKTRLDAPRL
measured.attribute: IC50 (µM)
Give the value in µM but do not write µM after it.

I'm curious: which IC50 was measured for O=C(O)c1ccccc1-c1c2cc(Cl)c(=O)cc-2oc2cc(O)c(Cl)cc12 tested on UniProt Q6P6C2?
179
